Assay: Effect of different intervals between administration and a meal on pharmacokinetic parameters (three-period crossover, single oral dose)
Assay type: in vivo, human
Details: male, human, plasma, po, 7.5 mg, single oral 7.5 mg; Group A, without a breakfast after administration; N = 15; read-out: AUC0-ē Mean SD
observationType: AUC (ng·h/mL)
One number for each entry, in ng·h/mL.

IN: What value of AUC has been reported for the following compound? CC1=NN(c2ccc3c(c2)CCCC3)C(=O)/C1=N\Nc1cccc(-c2ccc(C(=O)O)o2)c1O
OUT: 1110

----------
Experiment: Effect of different intervals between administration and a meal on pharmacokinetic parameters (three-period crossover, single oral dose)
Assay type: in vivo, human
Settings: male, human, plasma, po, 7.5 mg, single oral 7.5 mg; Group A, without a breakfast after administration; N = 15; read-out: AUC0-ē Geomean (% CVb)
observationType: AUC

IN: Which value of AUC has been reported for CC1=NN(c2ccc3c(c2)CCCC3)C(=O)/C1=N\Nc1cccc(-c2ccc(C(=O)O)o2)c1O [compound represented by Formula I] in the records?
OUT: 929 ng·h/mL
